Values from patent US20040018971A1

- target.or.test.system: HLA-B*5101 (human)
- protocol.text: competition vs 125I-labeled standard peptide, purified HLA
assay.endpoint: IC50 (nM)
Respond numerically; units are nM and should not be typed.

For orientation, consider the following solved cases.
FPNQAQMRIL (10-mer analog of the HER2/neu peptide starting at position 706; same label as the 9-mer in r49) [Her2/neu.706.F1, 10-mer] = 458
FPYVSRLLGI (10-mer analog of the HER2/neu peptide starting at position 779; same label as the 8-mer in r55) [Her2/neu.779.F1, 10-mer] = 7.9
FPNQAQMRII (10-mer analog of the HER2/neu peptide starting at position 706) [Her2/neu.706.F1I10] = 76
FPAEQRASPI (10-mer analog of the HER2/neu peptide starting at position 642) [Her2/neu.642.F1I10] = 98
MPYGCLLDHVI (11-mer analog of the HER2/neu peptide starting at position 801) [Her2/neu.801.I11] = 2.4
MPNQAQMRILI (11-mer analog of the HER2/neu peptide starting at position 706) [Her2/neu.706.I11] = 37
FPLTSIISAI (10-mer analog of the HER2/neu peptide starting at position 649) [Her2/neu.649.F1I10] = 26
FPLTSIISAVI (11-mer analog of the HER2/neu peptide starting at position 649) [Her2/neu.649.F1I11] = 4.6

Prompt line: Return IC50 (reported value) for this binder: FPLTSIISAV (10-mer analog of the HER2/neu peptide starting at position 649; same label as the 9-mer in r40) [Her2/neu.649.F1, 10-mer]
Response line: 63

Prompt line: Return IC50 (reported value) for this binder: FPYDGIPA (8-mer analog of the HER2/neu peptide starting at position 921) [Her2/neu.921.F1]
Response line: 157

Prompt line: Return IC50 (reported value) for this binder: FPKANKEII (9-mer analog of the HER2/neu peptide starting at position 760) [Her2/neu.760.F1I9]
Response line: 55

Prompt line: Return IC50 (reported value) for this binder: SPLTSIISI (9-mer analog of the HER2/neu peptide starting at position 649) [Her2/neu.649.I9]
Response line: 275

Prompt line: Return IC50 (reported value) for this binder: FPKANKEIL (9-mer analog of the HER2/neu peptide starting at position 760; same label as the 8-mer in r52) [Her2/neu.760.F1, 9-mer]
Response line: 190

Prompt line: Return IC50 (reported value) for this binder: FPLTPSGAI (9-mer analog of the HER2/neu peptide starting at position 698) [Her2/neu.698.F1I9]
Response line: 9.2

Prompt line: Return IC50 (reported value) for this binder: FPIKWMAL (8-mer analog of the HER2/neu peptide starting at position 884; also called FPIKWMAL) [Her2/neu.884.F1]
Response line: 306
